Measured aggregation suppression score accompanies every entry in the list below.
- EXPERIMENT: suppressors of polyglutamine aggregation in yeast, 75Q-TubH (AID 1616)
- APPLIED CONDITIONS: S. cerevisiae 75Q-TubH polyglutamine aggregation suppression; stronger effect = higher value
API doc: respond with a numeric literal and nothing else, no unit.

These recorded examples may help you get a feel for the data.
CC1OC1P(=O)(O)O (centres undefined)    1.43
CC(C)Oc1ccc2c(=O)cc(-c3ccccc3)oc2c1    0.599
CN1C2CCC1CC(OC(c1ccccc1)c1ccccc1)C2 (centres undefined)    1.04
CC(=O)OCC(=O)[C@@]1(O)CCC2C3CCC4=CC(=O)C=CC4(C)C3[C@@H](O)C[C@@]21C (some centres undefined)    0.991
COC1=CC(C)[C@@H]2C[C@H]3OC(=O)C[C@H]4C(C)=C(OC)C(=O)C([C@@]34C)[C@@]2(C)C1=O (some centres undefined)    1.57

Entry C[C@]12C=CC(=O)C=C1CCC1C2[C@@H](O)C[C@@]2(C)C1CC[C@]2(O)C(=O)CO (some centres undefined) has what aggregation suppression score?
1.27

Entry CC12CCC(=O)C=C1CCC1C2[C@@H](O)CC2(C)C1CC[C@]2(O)C(=O)COP(=O)(O)O (some centres undefined) has what aggregation suppression score?
1.46

Entry "CN(C)CC/C=C1/c2ccccc2COc2ccccc21" has what aggregation suppression score?
1.19

Entry CC1(C)C2CC[C@]3(C)C(C(=O)C=C4[C@@H]5C[C@@](C)(C(=O)O)CC[C@]5(C)CC[C@]43C)[C@@]2(C)CC[C@@H]1OC(=O)CCC(=O)O (some centres undefined) has what aggregation suppression score?
1.68
